target: Aromatase (Homo sapiens, UniProt P11511); construct: Aromatase activity is measured in JEG3 choriocarcinoma cells, obtained from the ATCC; host or cells: JEG3 choriocarcinoma cells; assay: Aromatase activity in intact JEG3 choriocarcinoma cells (Protocol 6); format: cell-based
Sequence (P11511 whole entry): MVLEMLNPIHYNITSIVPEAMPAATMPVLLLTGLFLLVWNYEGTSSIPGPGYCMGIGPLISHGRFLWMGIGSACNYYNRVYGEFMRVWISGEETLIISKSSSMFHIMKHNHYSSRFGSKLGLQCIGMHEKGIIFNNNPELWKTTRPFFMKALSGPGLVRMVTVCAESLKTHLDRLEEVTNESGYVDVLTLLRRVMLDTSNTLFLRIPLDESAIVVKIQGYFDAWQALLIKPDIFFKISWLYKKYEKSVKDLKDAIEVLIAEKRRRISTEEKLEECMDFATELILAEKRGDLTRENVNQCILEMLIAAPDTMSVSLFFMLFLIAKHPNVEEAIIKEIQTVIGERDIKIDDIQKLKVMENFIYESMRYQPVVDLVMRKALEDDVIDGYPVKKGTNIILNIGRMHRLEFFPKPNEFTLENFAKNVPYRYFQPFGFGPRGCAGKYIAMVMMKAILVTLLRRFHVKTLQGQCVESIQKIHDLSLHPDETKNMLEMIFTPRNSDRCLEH
quantity.kind: pIC50
A value of pIC50 is the negative decimal logarithm of a concentration given in moles per litre.

Reported pIC50, compound N#Cc1ccc(N(Cc2ccc(Br)c(OS(N)(=O)=O)c2)n2cnnc2)cc1 : ____
8.41

Measured values drawn from patent US8148415B2 for this set.
